What selectivity ratio at 48 h was measured for each of the following?
# experimental.details: Potency index, ratio of test compound IC50 to doxorubicin IC50 for cytotoxicity against human HL7702 cells assessed as inhibition of cell growth incubated for 48 hrs by CCK-8 assay
# Format: toxicity, cell-based
# run.parameters: HL7702 (L02) cells, read-out: Ratio IC50

Worked set:
compound	selectivity ratio at 48 h
COc1cccc2c1C(=O)c1c(O)c3c(c(O)c1C2=O)C[C@@](O)(C(=O)CO)C[C@@H]3O[C@H]1C[C@H](NC(=O)CCCCCO[C@H]2C(O)O[C@H](CO)[C@H](O)[C@@H]2O)[C@H](O)[C@H](C)O1 (stereo partly drawn)	> 12
COc1cccc2c1C(=O)c1c(O)c3c(c(O)c1C2=O)C[C@@](O)(C(=O)CO)C[C@@H]3O[C@H]1C[C@H](NC(=O)CCCCCO[C@@H]2O[C@H](CO)[C@H](O)[C@H](O)[C@H]2O)[C@H](O)[C@H](C)O1	> 12

Now consider the entry below.
QUERY: Fill in the blank: the reported selectivity ratio at 48 h of COc1cccc2c1C(=O)c1c(O)c3c(c(O)c1C2=O)C[C@@](O)(C(=O)CO)C[C@@H]3O[C@H]1C[C@H](NC(=O)CCCCCOC[C@H]2OC(O)[C@H](O)[C@@H](O)[C@H]2O)[C@H](O)[C@H](C)O1 (stereo partly drawn) is ____.
RESULT: > 12

---

# Tested on: Bel-7402
# experimental.details: Cytotoxicity against human Bel-7402 cells assessed as inhibition of cell growth incubated for 48 hrs by CCK-8 assay
# Assay type: functional, cell-based
# run.parameters: Bel-7402, 48 h
Would you mind telling me the reported pIC50 of each entry?
One number for each entry, as −log10 of the molar value.

Some solved cases for reference:
compound	assay.system	pIC50
COc1cccc2c1C(=O)c1c(O)c3c(c(O)c1C2=O)C[C@@](O)(C(=O)CO)C[C@@H]3O[C@H]1C[C@H](NC(=O)CCCCCO[C@@H]2O[C@H](CO)[C@H](O)[C@H](O)[C@H]2O)[C@H](O)[C@H](C)O1	Bel-7402	5.33
COc1cccc2c1C(=O)c1c(O)c3c(c(O)c1C2=O)C[C@@](O)(C(=O)CO)C[C@@H]3O[C@H]1C[C@H](NC(=O)CCCCCO[C@H]2C(O)O[C@H](CO)[C@H](O)[C@@H]2O)[C@H](O)[C@H](C)O1 (some centres undefined)	Bel-7402	5.51

Now examine the next entry.
QUERY: Look up pIC50: COc1cccc2c1C(=O)c1c(O)c3c(c(O)c1C2=O)C[C@@](O)(C(=O)CO)C[C@@H]3O[C@H]1C[C@H](N)[C@H](O)[C@H](C)O1 [DOXORUBICIN]
RESULT: 6.37

---

# Test system: DU-145
# experimental.details: Cytotoxicity against human DU-145 cells assessed as inhibition of cell growth incubated for 48 hrs by CCK-8 assay
# Assay type: functional, cell-based
# run.parameters: DU-145, 48 h
readout.label: pIC50
Numbers only, as −log10 of the molar value.

compound	pIC50
COc1cccc2c1C(=O)c1c(O)c3c(c(O)c1C2=O)C[C@@](O)(C(=O)CO)C[C@@H]3O[C@H]1C[C@H](NC(=O)CCCCCOC[C@H]2OC(O)[C@H](O)[C@@H](O)[C@H]2O)[C@H](O)[C@H](C)O1 (some centres undefined)	5.17
COc1cccc2c1C(=O)c1c(O)c3c(c(O)c1C2=O)C[C@@](O)(C(=O)CO)C[C@@H]3O[C@H]1C[C@H](NC(=O)CCCCCO[C@H]2C(O)O[C@H](CO)[C@H](O)[C@@H]2O)[C@H](O)[C@H](C)O1 (some centres undefined)	6.06

QUERY: State its pIC50 on DU-145: COc1cccc2c1C(=O)c1c(O)c3c(c(O)c1C2=O)C[C@@](O)(C(=O)CO)C[C@@H]3O[C@H]1C[C@H](NC(=O)CCCCCO[C@@H]2O[C@H](CO)[C@H](O)[C@H](O)[C@H]2O)[C@H](O)[C@H](C)O1
RESULT: 5.57
